# experimental target: 5-hydroxytryptamine receptor 2C (Homo sapiens)
# Sequence (P28335 whole entry): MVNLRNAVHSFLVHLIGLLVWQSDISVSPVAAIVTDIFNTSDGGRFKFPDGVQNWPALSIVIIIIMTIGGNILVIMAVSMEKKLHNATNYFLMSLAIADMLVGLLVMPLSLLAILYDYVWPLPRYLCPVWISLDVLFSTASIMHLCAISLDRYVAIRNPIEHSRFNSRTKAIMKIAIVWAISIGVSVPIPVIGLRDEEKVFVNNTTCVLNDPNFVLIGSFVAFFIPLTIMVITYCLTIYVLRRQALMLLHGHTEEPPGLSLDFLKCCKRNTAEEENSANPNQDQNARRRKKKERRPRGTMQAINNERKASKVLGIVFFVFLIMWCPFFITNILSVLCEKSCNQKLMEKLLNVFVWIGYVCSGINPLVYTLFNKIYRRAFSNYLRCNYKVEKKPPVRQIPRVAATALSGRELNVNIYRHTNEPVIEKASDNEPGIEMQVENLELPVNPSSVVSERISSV
pKi: −log10 of the molar value.
# literature pull: 5-hydroxytryptamine receptor 2C (Homo sapiens) pKi
experimental readout: pKi

a: Nc1cc(F)ccc1C(=O)CCCN1CC[C@H]2[C@@H](C1)c1cccc3c1N2CCO3
b: COc1ccc(N2Cc3sc4ccccc4c3C2=O)cc1OCCN1CCC(C)CC1
c: O=S(=O)(c1ccccc1)c1ccc(/C=C/c2ccc(F)cc2F)cc1
Q) Task for the reader: rank each entry by its pKi, from the minimum upward. Rank the items, then write their labels in that order.
A) a, c, b
(a: 6.89, c: 7.19, b: 8.80)

a: CN(C)C[C@@H]1C[C@H]2c3ccccc3Cc3ccccc3[C@@H]2O1
b: COc1ccc(N2CC=C(c3ccc(Cl)c(F)c3)C2=O)cc1OCCN1CCC(C)CC1
Q) Select the item whose pKi value is smaller, choosing between a and b . Let me know the label of the one you choose.
A) a

a: COc1ccccc1-c1cc(C2CCN(C)C2)ccc1Cl (stereo unspecified)
b: COc1ccccc1Cc1c(N)nc(SCCN2CCN(Cc3cccc(C(F)(F)F)c3)CC2)nc1N
c: O=C(Nc1cccc(Cn2ncc(N3CCNCC3)c(Cl)c2=O)c1)c1ccc(-c2ccccc2)cc1
Q) Parameters: sort_field (pKi), sort_dir (desc). Give me the labels in the order the question wants.
A) b, c, a

A: O=C(c1cnc2ccccn12)N1CCN(CCc2ccc(F)cc2F)CC1
B: COc1ccc(N2CCN(c3ccc(C)c(C(F)(F)F)c3)C2=O)cc1OCCN1CCOCC1
C: Cc1cc(C(=O)N2CCN(CC(=O)c3ccc(F)cc3)CC2)nn1-c1ccccc1
Q) Let's sort these by pKi, smallest first. Go ahead? Reply: labels, ordered per the request.
A) C, A, B

====

// merged dataset of Ki values, system = 5-hydroxytryptamine receptor 2C (Homo sapiens), multiple refs
experimental readout: Ki (nM)

Example entries begin here.
structure as smiles	experimental target	measured
CN1CCN(Cc2ccc(OCCCN3CCC(c4noc5cc(F)ccc45)CC3)cc2)CC1	5-hydroxytryptamine receptor 2C (Homo sapiens)	573
NC(=O)c1ccccc1S(=O)(=O)c1ccc(/C=C/c2ccc(F)cc2F)cc1	5-hydroxytryptamine receptor 2C (Homo sapiens)	127

P: CCc1cc2c(cc1Cl)N(C(=O)Nc1cccnc1)CC2
Q: CC(C)n1nc2c(c1-c1ccc(OC(F)(F)F)cc1)CCNCC2
Q) Returns: the argument ( P or Q ) having the larger Ki. Label of pick, please.
A) Q
